# testedOn: UniProtKB Q2NNR5
# Sequence (Q2NNR5 whole entry): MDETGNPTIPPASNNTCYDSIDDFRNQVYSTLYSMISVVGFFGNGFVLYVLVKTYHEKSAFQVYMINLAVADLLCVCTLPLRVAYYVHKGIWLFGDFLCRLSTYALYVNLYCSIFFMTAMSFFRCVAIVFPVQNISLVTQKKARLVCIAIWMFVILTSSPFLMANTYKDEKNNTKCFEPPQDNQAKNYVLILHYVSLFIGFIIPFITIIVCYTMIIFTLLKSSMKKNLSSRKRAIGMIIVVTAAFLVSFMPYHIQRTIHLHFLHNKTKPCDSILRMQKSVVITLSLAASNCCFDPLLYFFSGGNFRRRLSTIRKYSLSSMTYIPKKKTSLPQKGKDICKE
# methodSummary: Inhibition of [3H]LTD4 binding to guinea-pig lung membranes
# Format: tissue-based, Membrane
measurementKind: Ki (nM)

| chemicalSmiles | unitAbbrev | Ki |
| --- | --- | --- |
| O=C(O)CCC[C@H](O)[C@@H](/C=C\CCCCCCCCCc1ccccc1)Sc1ccc(C(=O)O)cc1 | nM | 251 |

[a] O=C(O)CCC[C@H](O)[C@@H](/C=C\CCCCCCCCCCCc1ccccc1)Sc1ccc(C(=O)O)cc1
[b] O=C(O)CCC[C@H](O)[C@@H](/C=C\CCCCCCCCc1ccccc1)Sc1ccc(C(=O)O)cc1
Looking at a and b , which one comes out lower in Ki terms? Field: selected label. Fill in the label of the entry you choose.
b
(b: 316 nM, a: 1260 nM)
